# Tested on: MCF-7
# CONDITION DETAILS: read-out: GI50 MCF-7; 48 h, average ± SEM
MEASUREMENT KIND: GI50 (nM)
# unit: nM | format: bare number

Some solved entries appear below for comparison.
{"COMPOUND STRING": "N#C[Se]c1ccc(NC(=O)c2ccc(C(F)(F)F)cc2)cc1", "GI50, nM": 900}
{"COMPOUND STRING": "COP(=O)(Nc1ccc([Se]C#N)cc1)OC", "GI50, nM": 600}
{"COMPOUND STRING": "N#C[Se]c1ccc(NC(=O)c2ccc([N+](=O)[O-])cc2)cc1", "GI50, nM": 600}
{"COMPOUND STRING": "CCOP(=O)(Nc1ccc([Se]C#N)cc1)OCC", "GI50, nM": 900}

May I ask what GI50 has been recorded for N#C[Se]c1ccc(NC(=O)c2ccc(Cl)cc2)cc1 ?
500
